Reference source for all entries: ChEMBL document CHEMBL6078668

assay: Cytotoxicity against C57BL/6 mouse BV-2 cells assessed as survival rate at 30 uM incubated for 24 hrs by MTT assay relative to control; assay type: toxicity, cell-based; conditions: read-out: Survival
measurement.name: viability at 24 h, 30 µM (%)
Answers are plain numbers, in %.

Exercise: // lookup viability at 24 h, 30 µM for CCCCOC(=O)c1ccccc1NS(=O)(=O)c1ccc(Br)s1
Solution: 104

Exercise: // lookup viability at 24 h, 30 µM for CCN1C[C@]2(OC(=O)c3ccccc3NC(=O)c3ccc(S(C)(=O)=O)cc3)CC[C@H](OC)[C@]34C1[C@@H](C[C@H]23)[C@@]1(O)C[C@H](OC)[C@H]2C[C@@H]4[C@]1(O)[C@H]2OC
Solution: 103

Exercise: // lookup viability at 24 h, 30 µM for CCN1C[C@]2(OC(=O)c3ccccc3NC(=O)S(=O)(=O)Cc3ccc([N+](=O)[O-])cc3)CC[C@H](OC)[C@]34C1[C@@H](C[C@H]23)[C@@]1(O)C[C@H](OC)[C@H]2C[C@@H]4[C@]1(O)[C@H]2OC
Solution: 98.9

Exercise: // lookup viability at 24 h, 30 µM for CCN1C[C@]2(OC(=O)c3ccccc3NC(=O)S(=O)(=O)c3ccc(C)c(Cl)c3)CC[C@H](OC)[C@]34C1[C@@H](C[C@H]23)[C@@]1(O)C[C@H](OC)[C@H]2C[C@@H]4[C@]1(O)[C@H]2OC
Solution: 94.8

Exercise: // lookup viability at 24 h, 30 µM for CCN1C[C@]2(COC(=O)c3ccccc3N)CC[C@H](OC)[C@]34C1[C@@H](C[C@H]23)[C@@]1(O)C[C@H](OC)[C@H]2C[C@@H]4[C@]1(O)[C@H]2OC
Solution: 91.9

Your task in this section: give viability at 24 h, 30 µM for each listed record.
1. CCN1C[C@]2(OC(=O)c3ccccc3NC(=O)c3ccc(F)cc3)CC[C@H](OC)[C@]34C1[C@@H](C[C@H]23)[C@@]1(O)C[C@H](OC)[C@H]2C[C@@H]4[C@]1(O)[C@H]2OC
2. CCN1C[C@]2(OC(=O)c3ccccc3NC(=O)S(=O)(=O)c3ccc(Cl)cc3F)CC[C@H](OC)[C@]34C1[C@@H](C[C@H]23)[C@@]1(O)C[C@H](OC)[C@H]2C[C@@H]4[C@]1(O)[C@H]2OC
3. CCN1C[C@]2(OC(=O)c3ccccc3NC(=O)S(=O)(=O)c3ccc(C#N)cc3)CC[C@H](OC)[C@]34C1[C@@H](C[C@H]23)[C@@]1(O)C[C@H](OC)[C@H]2C[C@@H]4[C@]1(O)[C@H]2OC
4. CCN1C[C@]2(OC(=O)c3ccccc3NC(=O)c3ccc(N(C)C)cc3)CC[C@H](OC)[C@]34C1[C@@H](C[C@H]23)[C@@]1(O)C[C@H](OC)[C@H]2C[C@@H]4[C@]1(O)[C@H]2OC
5. CCN1C[C@]2(OC(=O)c3ccccc3NC(=O)S(=O)(=O)c3cccc(Br)c3)CC[C@H](OC)[C@]34C1[C@@H](C[C@H]23)[C@@]1(O)C[C@H](OC)[C@H]2C[C@@H]4[C@]1(O)[C@H]2OC

Solution:
[104, 99.8, 103, 101, 102]

* * *

experiment: Cytotoxicity against C57BL/6 mouse BV-2 cells assessed as survival rate at 30 uM incubated for 24 hrs by MTT assay relative to control; format: toxicity, cell-based; conditions: read-out: Survival
measurement.name: viability at 24 h, 30 µM
Give the value; after it, write the unit.

Your task in this section: give viability at 24 h, 30 µM for each listed record.
1. CCN1C[C@]2(OC(=O)c3ccccc3NC(=O)S(=O)(=O)c3ccc4c(c3)CCC4)CC[C@H](OC)[C@]34C1[C@@H](C[C@H]23)[C@@]1(O)C[C@H](OC)[C@H]2C[C@@H]4[C@]1(O)[C@H]2OC
2. CCN1C[C@]2(OC(=O)c3ccccc3NC(=O)C3CCCC3)CC[C@H](OC)[C@]34C1[C@@H](C[C@H]23)[C@@]1(O)C[C@H](OC)[C@H]2C[C@@H]4[C@]1(O)[C@H]2OC
3. CCN1C[C@]2(OC(=O)c3ccccc3NC(=O)S(=O)(=O)c3cncc(Br)c3)CC[C@H](OC)[C@]34C1[C@@H](C[C@H]23)[C@@]1(O)C[C@H](OC)[C@H]2C[C@@H]4[C@]1(O)[C@H]2OC

Solution:
94.4%
107%
91.5%

Your task in this section: give viability at 24 h, 30 µM for each listed record.
1. CCCC(C)C(=O)Nc1ccccc1C(=O)O[C@@]12CC[C@H](OC)[C@]34C([C@@H](C[C@H]13)[C@@]1(O)C[C@H](OC)[C@H]3C[C@@H]4[C@]1(O)[C@H]3OC)N(CC)C2 (stereo not given in full)
2. CCN1C[C@]2(OC(=O)c3ccccc3NC(=O)S(=O)(=O)c3ccc(Cl)cc3)CC[C@H](OC)[C@]34C1[C@@H](C[C@H]23)[C@@]1(O)C[C@H](OC)[C@H]2C[C@@H]4[C@]1(O)[C@H]2OC

Solution:
1. 108%
2. 100%

* * *

assay: Cytotoxicity against C57BL/6 mouse BV-2 cells assessed as survival rate at 10 uM incubated for 24 hrs by MTT assay relative to control; assay type: toxicity, cell-based; conditions: read-out: Survival
measurement.name: viability at 24 h, 10 µM
Give the value; after it, write the unit.

Before answering, review these 3 worked examples.
Exercise: // lookup viability at 24 h, 10 µM for CCN1C[C@]2(OC(=O)c3ccccc3NC(=O)S(=O)(=O)c3c(Cl)sc4ccccc34)CC[C@H](OC)[C@]34C1[C@@H](C[C@H]23)[C@@]1(O)C[C@H](OC)[C@H]2C[C@@H]4[C@]1(O)[C@H]2OC
Solution: 98.5%

Exercise: // lookup viability at 24 h, 10 µM for CCN1C[C@]2(COC(=O)c3ccccc3NC(=O)c3ccc(Cl)s3)CC[C@H](OC)[C@]34C1[C@@H](C[C@H]23)[C@@]1(O)C[C@H](OC)[C@H]2C[C@@H]4[C@]1(O)[C@H]2OC
Solution: 105%

Exercise: // lookup viability at 24 h, 10 µM for CCN1C[C@]2(OC(=O)c3ccccc3NC(=O)S(=O)(=O)c3c(C)c(C)c4c(c3C)CC(C)(C)O4)CC[C@H](OC)[C@]34C1[C@@H](C[C@H]23)[C@@]1(O)C[C@H](OC)[C@H]2C[C@@H]4[C@]1(O)[C@H]2OC
Solution: 95.8%

Your task in this section: give viability at 24 h, 10 µM for each listed record.
1. CCc1ccc(C(=O)Nc2ccccc2C(=O)O[C@H]2[C@@H]3C[C@H]4[C@@]56C7[C@@H](C[C@@H]5[C@@](COC)(CC[C@@H]6OC)CN7CC)[C@@](O)(C[C@@H]3OC)[C@@]24O)cc1
2. CCN1C[C@]2(COC)CC[C@H](OC)[C@]34C1[C@@H](C[C@H]23)[C@@]1(O)C[C@H](OC)[C@H]2C[C@@H]4[C@]1(O)[C@H]2OC(=O)c1ccccc1NC(=O)c1ccc(Cl)s1

Solution:
["1.2%", "97.8%"]

* * *

Please go through the items and note down their viability at 24 h, 30 µM.
experiment: Cytotoxicity against C57BL/6 mouse BV-2 cells assessed as survival rate at 30 uM incubated for 24 hrs by MTT assay relative to control; type: toxicity, cell-based; settings: read-out: Survival
Give bare numbers, in %.

Before answering, review these 2 worked examples.
Exercise: // lookup viability at 24 h, 30 µM for CCN1C[C@]2(OC(=O)c3ccccc3NC(=O)S(=O)(=O)c3ccc(-c4ccccc4)cc3)CC[C@H](OC)[C@]34C1[C@@H](C[C@H]23)[C@@]1(O)C[C@H](OC)[C@H]2C[C@@H]4[C@]1(O)[C@H]2OC
Solution: 102

Exercise: // lookup viability at 24 h, 30 µM for CCN1C[C@]2(OC(=O)c3ccccc3NC(=O)CC(C)C)CC[C@H](OC)[C@]34C1[C@@H](C[C@H]23)[C@@]1(O)C[C@H](OC)[C@H]2C[C@@H]4[C@]1(O)[C@H]2OC
Solution: 102

---
Exercise: // lookup viability at 24 h, 30 µM for CCN1C[C@]2(OC(=O)c3ccccc3NC(=O)c3ccccc3I)CC[C@H](OC)[C@]34C1[C@@H](C[C@H]23)[C@@]1(O)C[C@H](OC)[C@H]2C[C@@H]4[C@]1(O)[C@H]2OC
Solution: 109

* * *

test: Acute toxicity in po dosed Kunming mouse assessed as lethal dose measured after 14 days; type: organism-based; settings: in vivo, time 14 day
measurement.name: LD50 at 336 h (mg/kg)
Answers are plain numbers, in mg/kg.

Exercise: // lookup LD50 at 336 h for CCN1C[C@]2(OC(=O)c3ccccc3NC(=O)S(=O)(=O)c3cccc(F)c3)CC[C@H](OC)[C@]34C1[C@@H](C[C@H]23)[C@@]1(O)C[C@H](OC)[C@H]2C[C@@H]4[C@]1(O)[C@H]2OC
Solution: 508
